Test system: Botrytis cinerea (B05.10)
Assay: Resazurin antifungal assay of 180 alpha-factor peptide variants towards Botrytis (Example 2)
Assay type: cell-based
Details: % inhibition of fungal growth, Botrytis conidia, peptide 100 μM, resazurin
Peptide text beside a SMILES is read from it.
MEASURED METRIC: Inhibition at 100 μM

| COMPOUND | SYSTEM | MEASURED METRIC | RESULT VALUE |
| --- | --- | --- | --- |
| CC[C@H](C)[C@H](NC(=O)[C@H](CCCCN)NC(=O)[C@@H](NC(=O)[C@H](CCCCN)NC(=O)[C@H](CC(C)C)NC(=O)[C@H](Cc1c[nH]c2ccccc12)NC(=O)[C@H](Cc1c[nH]cn1)NC(=O)[C@@H](N)CCCCN)[C@@H](C)CC)C(=O)NCC(=O)N[C@@H](CCC(=O)O)C(=O)N1CCC[C@H]1C(=O)N[C@@H](CCSC)C(=O)N[C@@H](Cc1ccc(O)cc1)C(=O)O [compound 62] (H-KHWLKIKIGEPMY-OH; N-terminus and C-terminus assumed) | Botrytis cinerea (B05.10) | Inhibition at 100 μM | 100% |
| CC[C@H](C)[C@H](NC(=O)[C@H](CCCCN)NC(=O)[C@@H](N)Cc1c[nH]c2ccccc12)C(=O)N[C@@H](CC(C)C)C(=O)N[C@H](C(=O)N[C@H](C(=O)N[C@@H](CCCCN)C(=O)N1CCC[C@H]1C(=O)NCC(=O)N[C@@H](CCC(N)=O)C(=O)N1CCC[C@H]1C(=O)N[C@@H](CCSC)C(=O)N[C@@H](Cc1ccc(O)cc1)C(=O)O)[C@@H](C)CC)[C@@H](C)O [compound 155] (H-WKILTIKPGQPMY-OH; N-terminus and C-terminus assumed) | Botrytis cinerea (B05.10) | Inhibition at 100 μM | <90% |
| CSCC[C@H](NC(=O)[C@@H]1CCCN1C(=O)[C@H](CCC(N)=O)NC(=O)CNC(=O)[C@@H]1CCCN1C(=O)[C@H](CCCCN)NC(=O)[C@H](CC(C)C)NC(=O)[C@H](C)NC(=O)[C@H](CC(C)C)NC(=O)[C@H](Cc1ccccc1)NC(=O)[C@H](Cc1c[nH]cn1)NC(=O)[C@@H](N)CCCCN)C(=O)N[C@@H](Cc1ccc(O)cc1)C(=O)O [compound 28] (H-KHFLALKPGQPMY-OH; N-terminus and C-terminus assumed) | Botrytis cinerea (B05.10) | Inhibition at 100 μM | 100% |
| CSCC[C@H](NC(=O)[C@@H]1CCCN1C(=O)[C@H](CCC(N)=O)NC(=O)CNC(=O)[C@@H]1CCCN1C(=O)[C@H](Cc1ccc(O)cc1)NC(=O)[C@H](CC(C)C)NC(=O)[C@H](CCC(N)=O)NC(=O)[C@@H](NC(=O)[C@H](Cc1c[nH]c2ccccc12)NC(=O)[C@H](CCC(=O)O)NC(=O)[C@@H](N)CCCCN)C(C)C)C(=O)N[C@@H](Cc1ccc(O)cc1)C(=O)O [compound 125] (H-KEWVQLYPGQPMY-OH; N-terminus and C-terminus assumed) | Botrytis cinerea (B05.10) | Inhibition at 100 μM | <90% |
| CC[C@H](C)[C@H](NC(=O)[C@H](CO)NC(=O)[C@H](CC(C)C)NC(=O)CNC(=O)[C@H](Cc1c[nH]cn1)NC(=O)[C@@H]1CCCN1)C(=O)N[C@@H](Cc1ccc(O)cc1)C(=O)N1CCC[C@H]1C(=O)NCC(=O)N[C@@H](CCC(N)=O)C(=O)N1CCC[C@H]1C(=O)N[C@@H](CCSC)C(=O)N[C@@H](Cc1ccc(O)cc1)C(=O)O [compound 142] (H-PHGLSIYPGQPMY-OH; N-terminus and C-terminus assumed) | Botrytis cinerea (B05.10) | Inhibition at 100 μM | <90% |

###

Tested on: Botrytis cinerea (B05.10)
Assay: Resazurin antifungal assay of 180 alpha-factor peptide variants towards Botrytis (Example 2)
Assay type: cell-based
Details: % inhibition of fungal growth, Botrytis conidia, peptide 20 μM, resazurin
Peptide text beside a SMILES is read from it.

| COMPOUND | INEQUALITY OPERATOR | Inhibition at 20 μM (%) |
| --- | --- | --- |
| CSCC[C@H](NC(=O)[C@@H]1CCCN1C(=O)[C@H](CCC(N)=O)NC(=O)CNC(=O)[C@@H]1CCCN1C(=O)[C@H](CCCCN)NC(=O)[C@H](Cc1ccccc1)NC(=O)[C@H](CCCNC(=N)N)NC(=O)[C@H](CC(C)C)NC(=O)[C@@H](NC(=O)[C@H](Cc1c[nH]cn1)NC(=O)[C@@H](N)CCCCN)[C@@H](C)O)C(=O)N[C@@H](Cc1ccc(O)cc1)C(=O)O [compound 80] (H-KHTLRFKPGQPMY-OH; N-terminus and C-terminus assumed) | = | 99.56 |
| CC[C@H](C)[C@H](NC(=O)[C@H](CCCNC(=N)N)NC(=O)[C@@H](NC(=O)[C@H](Cc1c[nH]c2ccccc12)NC(=O)[C@H](Cc1c[nH]cn1)NC(=O)[C@@H](N)Cc1c[nH]c2ccccc12)C(C)C)C(=O)N[C@@H](Cc1c[nH]c2ccccc12)C(=O)N1CCC[C@H]1C(=O)NCC(=O)N[C@@H](CCC(N)=O)C(=O)N1CCC[C@H]1C(=O)N[C@@H](CCSC)C(=O)N[C@@H](Cc1ccc(O)cc1)C(=O)O [compound 51] (H-WHWVRIWPGQPMY-OH; N-terminus and C-terminus assumed) | = | 97.13 |
| CSCC[C@H](NC(=O)[C@@H]1CCCN1C(=O)[C@H](CCC(N)=O)NC(=O)CNC(=O)[C@@H]1CCCN1C(=O)[C@H](CCCCN)NC(=O)[C@H](Cc1ccccc1)NC(=O)[C@H](CCCNC(=N)N)NC(=O)[C@H](CC(C)C)NC(=O)[C@H](Cc1c[nH]c2ccccc12)NC(=O)[C@H](Cc1c[nH]cn1)NC(=O)[C@@H]1CCCN1)C(=O)N[C@@H](Cc1ccc(O)cc1)C(=O)O [compound 5] (H-PHWLRFKPGQPMY-OH; N-terminus and C-terminus assumed) | < | 90 |
| CSCC[C@H](NC(=O)[C@@H]1CCCN1C(=O)[C@H](CCC(N)=O)NC(=O)CNC(=O)[C@@H]1CCCN1C(=O)[C@H](CCCCN)NC(=O)[C@H](CC(C)C)NC(=O)[C@H](CO)NC(=O)[C@H](CC(C)C)NC(=O)[C@H](Cc1ccccc1)NC(=O)[C@H](Cc1c[nH]cn1)NC(=O)[C@@H](N)CCCCN)C(=O)N[C@@H](Cc1ccc(O)cc1)C(=O)O [compound 107] (H-KHFLSLKPGQPMY-OH; N-terminus and C-terminus assumed) | < | 90 |
| CC[C@H](C)[C@H](NC(=O)[C@H](Cc1c[nH]c2ccccc12)NC(=O)[C@H](Cc1c[nH]cn1)NC(=O)[C@@H]1CCCN1)C(=O)N[C@@H](CO)C(=O)N[C@@H](CC(C)C)C(=O)N[C@@H](CCCCN)C(=O)N[C@@H](CCCCN)C(=O)NCC(=O)N[C@@H](CCC(N)=O)C(=O)N1CCC[C@H]1C(=O)N[C@@H](CCSC)C(=O)N[C@@H](Cc1ccc(O)cc1)C(=O)O [compound 66] (H-PHWISLKKGQPMY-OH; N-terminus and C-terminus assumed) | = | 96.17 |

###

Tested on: Botrytis cinerea (B05.10)
Experiment: Resazurin antifungal assay of 180 alpha-factor peptide variants towards Botrytis (Example 2)
Format: cell-based
Settings: % inhibition of fungal growth, Botrytis conidia, peptide 100 μM, resazurin
Peptide text beside a SMILES is read from it.
Recorded Inhibition at 100 μM by entry

| COMPOUND | Inhibition at 100 μM |
| --- | --- |
| CSCC[C@H](NC(=O)[C@@H]1CCCN1C(=O)[C@H](CCC(=O)O)NC(=O)CNC(=O)[C@H](CCCCN)NC(=O)[C@H](CCCCN)NC(=O)[C@H](CC(C)C)NC(=O)[C@H](CCC(N)=O)NC(=O)[C@@H](NC(=O)[C@H](Cc1c[nH]c2ccccc12)NC(=O)[C@H](Cc1c[nH]cn1)NC(=O)[C@@H](N)Cc1c[nH]c2ccccc12)C(C)C)C(=O)N[C@@H](Cc1ccc(O)cc1)C(=O)O [compound 106] (H-WHWVQLKKGEPMY-OH; N-terminus and C-terminus assumed) | 100% |
| CSCC[C@H](NC(=O)[C@@H]1CCCN1C(=O)[C@H](CCC(N)=O)NC(=O)CNC(=O)[C@H](CCCNC(=N)N)NC(=O)[C@H](CCCCN)NC(=O)[C@H](CC(C)C)NC(=O)[C@H](CCC(N)=O)NC(=O)CNC(=O)[C@H](CC(=O)O)NC(=O)[C@H](Cc1c[nH]cn1)NC(=O)[C@@H]1CCCN1)C(=O)N[C@@H](Cc1ccc(O)cc1)C(=O)O [compound 147] (H-PHDGQLKRGQPMY-OH; N-terminus and C-terminus assumed) | <90% |
| CSCC[C@H](NC(=O)[C@H](Cc1c[nH]cn1)NC(=O)[C@@H](N)Cc1c[nH]c2ccccc12)C(=O)N[C@@H](CC(C)C)C(=O)N[C@H](C(=O)N[C@@H](Cc1ccccc1)C(=O)N[C@@H](CCCCN)C(=O)N1CCC[C@H]1C(=O)NCC(=O)N[C@@H](CCC(N)=O)C(=O)N1CCC[C@H]1C(=O)N[C@@H](CCSC)C(=O)N[C@@H](Cc1ccc(O)cc1)C(=O)O)[C@@H](C)O [compound 170] (H-WHMLTFKPGQPMY-OH; N-terminus and C-terminus assumed) | <90% |
